target: UniProtKB Q9QYJ6; experiment: PDE10 ex vivo receptor occupancy (RO) screening in rat striatum; details: oral, 10 mpk, 1 h (footnote A)
Reported receptor occupancy at 10 mg/kg by item:
Readout: receptor occupancy at 10 mg/kg (%)

>>> df
                                   molecule       test_system                         readout  reported_value
0  CNC(=O)c1ccc(-c2nccnc2C2CN(c3ncc4ccc(F)cc4n3)C2)cc1F  UniProtKB Q9QYJ6  receptor occupancy at 10 mg/kg             123
1  CNC(=O)c1ccc(-c2nccnc2C2CN(c3ccc4ccc(F)cc4n3)C2)cc1F  UniProtKB Q9QYJ6  receptor occupancy at 10 mg/kg             134
2  CNC(=O)c1ccc(-c2nccnc2C2CN(c3ncc4ccc(Cl)cc4n3)C2)cc1F  UniProtKB Q9QYJ6  receptor occupancy at 10 mg/kg             101
3  CNC(=O)c1ccc(-c2nccnc2C2CN(c3ccc4ccccc4n3)C2)cc1F  UniProtKB Q9QYJ6  receptor occupancy at 10 mg/kg            93.2
4  NC(=O)c1ccc(-c2nccnc2C2CN(c3ccc4ccccc4n3)C2)cc1F [Compound 16, reference compound]  UniProtKB Q9QYJ6  receptor occupancy at 10 mg/kg            52.3
5  CNC(=O)c1cccc(-c2nccnc2C2CN(c3ccc4ccccc4n3)C2)c1 [Compound 17, reference compound]  UniProtKB Q9QYJ6  receptor occupancy at 10 mg/kg              72
6  CNC(=O)c1ccc(-c2nccnc2C2CN(c3ncc4ccccc4n3)C2)cc1F  UniProtKB Q9QYJ6  receptor occupancy at 10 mg/kg            85.4
7  NC(=O)c1ccc(-c2nccnc2C2CN(c3ccc4ccccc4n3)C2)cc1 [Compound 15, reference compound]  UniProtKB Q9QYJ6  receptor occupancy at 10 mg/kg            47.7

---

Reported receptor occupancy at 10 mg/kg by item:
molecular target: PDE10 (Rattus norvegicus (Rat)); experiment: PDE10 ex vivo receptor occupancy (RO) screening in rat striatum; details: oral, 10 mpk, 4 h (footnote B)
Sequence (Q9QYJ6 whole entry): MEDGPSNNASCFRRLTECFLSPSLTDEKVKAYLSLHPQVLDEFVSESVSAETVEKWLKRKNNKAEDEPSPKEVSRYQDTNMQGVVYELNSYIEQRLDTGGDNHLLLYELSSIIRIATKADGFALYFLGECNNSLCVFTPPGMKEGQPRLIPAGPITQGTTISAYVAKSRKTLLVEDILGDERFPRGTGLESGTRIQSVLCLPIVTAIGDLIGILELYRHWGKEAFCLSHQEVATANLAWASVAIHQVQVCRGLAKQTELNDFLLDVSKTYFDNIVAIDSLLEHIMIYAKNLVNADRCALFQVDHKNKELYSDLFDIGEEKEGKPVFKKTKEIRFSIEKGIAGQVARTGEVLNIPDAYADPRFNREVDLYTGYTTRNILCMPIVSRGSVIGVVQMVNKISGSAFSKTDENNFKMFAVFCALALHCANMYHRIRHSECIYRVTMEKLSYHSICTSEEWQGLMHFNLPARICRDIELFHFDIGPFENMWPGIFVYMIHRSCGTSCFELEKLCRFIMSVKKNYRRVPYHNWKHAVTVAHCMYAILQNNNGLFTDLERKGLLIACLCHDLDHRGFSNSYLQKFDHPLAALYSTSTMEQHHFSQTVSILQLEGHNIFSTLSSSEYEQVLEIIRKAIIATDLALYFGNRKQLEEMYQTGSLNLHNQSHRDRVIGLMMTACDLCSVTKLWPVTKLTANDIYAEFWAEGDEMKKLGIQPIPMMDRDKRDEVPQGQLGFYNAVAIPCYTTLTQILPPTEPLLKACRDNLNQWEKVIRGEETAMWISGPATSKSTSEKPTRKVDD
Readout: receptor occupancy at 10 mg/kg (%)

>>> print(df.to_string())
                    structure_smiles_string  unit_abbreviation  reported_value
0  CNC(=O)c1ccc(-c2nccnc2C2CN(c3ncc4cc(F)ccc4n3)C2)cc1F                  %              80
1  CNC(=O)c1ccc(-c2nccnc2C2CN(c3ncc4ccc(F)cc4n3)C2)cc1F                  %            87.1
2  CNC(=O)c1ccc(-c2nccnc2C2CCN(c3ccc4ccc(F)cc4n3)CC2)cc1F                  %             112
3  CNC(=O)c1ccc(-c2nccnc2C2CCN(c3ccc4ccc(Cl)cc4n3)CC2)cc1F                  %              79

---

target: human MDR1 (P-gp) (Homo sapiens (Human), UniProt P08183); assay: Transcellular transport in human MDR1-transfected LLC-PK1 cells; type: in vitro ADME; conditions: pH 7.4, MDR1-LLC-PK1, 5 μM test compound
Sequence (P08183 whole entry): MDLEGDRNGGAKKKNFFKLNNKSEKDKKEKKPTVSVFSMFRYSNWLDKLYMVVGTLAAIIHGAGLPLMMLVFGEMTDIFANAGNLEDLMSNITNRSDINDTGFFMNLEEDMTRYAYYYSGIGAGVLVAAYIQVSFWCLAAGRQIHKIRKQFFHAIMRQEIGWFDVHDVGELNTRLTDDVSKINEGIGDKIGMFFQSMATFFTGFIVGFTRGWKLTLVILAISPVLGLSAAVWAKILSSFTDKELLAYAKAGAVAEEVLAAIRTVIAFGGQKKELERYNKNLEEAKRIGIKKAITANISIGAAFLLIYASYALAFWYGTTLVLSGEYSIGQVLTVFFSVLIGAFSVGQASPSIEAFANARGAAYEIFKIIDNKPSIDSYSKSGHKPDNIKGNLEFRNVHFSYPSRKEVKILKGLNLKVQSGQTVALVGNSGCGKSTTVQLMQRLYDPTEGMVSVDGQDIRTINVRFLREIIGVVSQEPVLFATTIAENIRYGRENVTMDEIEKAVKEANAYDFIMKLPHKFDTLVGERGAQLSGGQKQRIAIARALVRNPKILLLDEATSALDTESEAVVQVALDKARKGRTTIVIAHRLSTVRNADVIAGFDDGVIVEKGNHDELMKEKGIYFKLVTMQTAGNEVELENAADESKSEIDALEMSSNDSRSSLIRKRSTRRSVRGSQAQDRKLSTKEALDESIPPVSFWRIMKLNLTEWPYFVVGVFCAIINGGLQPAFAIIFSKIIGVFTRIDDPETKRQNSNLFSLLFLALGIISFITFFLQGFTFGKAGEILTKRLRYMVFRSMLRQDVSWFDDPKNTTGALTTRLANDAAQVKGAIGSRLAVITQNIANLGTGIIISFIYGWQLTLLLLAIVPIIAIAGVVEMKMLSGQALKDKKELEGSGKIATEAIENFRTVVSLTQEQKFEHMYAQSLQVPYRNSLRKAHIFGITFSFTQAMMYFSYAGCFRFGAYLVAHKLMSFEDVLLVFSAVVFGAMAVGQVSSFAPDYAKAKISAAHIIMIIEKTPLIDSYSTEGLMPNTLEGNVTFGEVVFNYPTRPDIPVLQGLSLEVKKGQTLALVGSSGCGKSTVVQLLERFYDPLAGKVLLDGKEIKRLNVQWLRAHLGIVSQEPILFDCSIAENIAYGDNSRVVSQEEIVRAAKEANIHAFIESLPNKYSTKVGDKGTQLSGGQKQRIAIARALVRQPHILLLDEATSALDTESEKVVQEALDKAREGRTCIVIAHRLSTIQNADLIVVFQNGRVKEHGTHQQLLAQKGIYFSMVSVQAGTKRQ
Readout: efflux ratio at 2 h, 5 μM

>>> df
                    structure_smiles_string  reported_value
0  CNC(=O)c1ccc(-c2nccnc2C2CCN(c3ccc4cc(F)ccc4n3)CC2)cc1F             3.4
1  CNC(=O)c1ccc(-c2nccnc2C2CN(c3ncc4ccc(F)cc4n3)C2)cc1F             1.8
2  CNC(=O)c1ccc(-c2nccnc2C2CCN(c3ccc4cccc(F)c4n3)CC2)cc1F             2.5
3  CNC(=O)c1ccc(-c2nccnc2C2CN(c3ccc4ccc(F)cc4n3)C2)cc1F             2.8
4  CNC(=O)c1ccc(-c2nccnc2C2CN(c3ccc4cc(F)ccc4n3)C2)cc1F            3.02
5  CNC(=O)c1ccc(-c2nccnc2C2CN(c3ncc4cc(F)c(Cl)cc4n3)C2)cc1F            1.85

---

target: human PDE10A2 (Homo sapiens (Human), UniProt Q9Y233)
Sequence (Q9Y233 267-1055): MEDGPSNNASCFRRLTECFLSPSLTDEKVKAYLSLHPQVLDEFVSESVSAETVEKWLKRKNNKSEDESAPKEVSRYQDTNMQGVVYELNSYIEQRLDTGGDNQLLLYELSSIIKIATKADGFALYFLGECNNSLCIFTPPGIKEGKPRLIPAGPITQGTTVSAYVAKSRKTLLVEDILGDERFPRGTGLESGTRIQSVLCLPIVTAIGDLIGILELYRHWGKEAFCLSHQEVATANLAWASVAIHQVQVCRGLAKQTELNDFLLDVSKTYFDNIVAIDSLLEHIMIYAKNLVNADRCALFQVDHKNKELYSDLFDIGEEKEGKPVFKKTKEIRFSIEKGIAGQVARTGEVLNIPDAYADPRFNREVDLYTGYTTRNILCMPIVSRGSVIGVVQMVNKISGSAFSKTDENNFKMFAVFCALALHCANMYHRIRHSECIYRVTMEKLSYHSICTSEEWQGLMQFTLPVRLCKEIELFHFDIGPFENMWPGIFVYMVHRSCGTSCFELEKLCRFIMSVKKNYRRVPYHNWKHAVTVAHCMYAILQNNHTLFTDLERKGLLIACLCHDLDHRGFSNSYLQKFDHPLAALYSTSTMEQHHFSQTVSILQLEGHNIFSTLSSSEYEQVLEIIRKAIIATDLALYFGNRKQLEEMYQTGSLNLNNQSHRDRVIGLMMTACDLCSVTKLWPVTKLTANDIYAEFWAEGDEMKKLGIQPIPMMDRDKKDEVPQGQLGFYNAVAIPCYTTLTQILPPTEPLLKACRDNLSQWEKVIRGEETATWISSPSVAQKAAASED
# Yes = IC50 below 8 nM (exclusive); No = IC50 at/above 8 nM

                                   compound                               test_system  cat
0  CNC(=O)c1ccc(-c2nccnc2C2CN(c3ccc4ncc(Cl)cc4n3)C2)cc1F [Example 14]  human PDE10A2 (Homo sapiens (Human), UniProt Q9Y233)  Yes
1  CNC(=O)c1ccc(-c2nccnc2C2CN(c3ncc4cc(F)ccc4n3)C2)cc1F [Example 11]  human PDE10A2 (Homo sapiens (Human), UniProt Q9Y233)   No
2  CNC(=O)c1ccc(-c2nccnc2C2CCN(c3ccc4ccc(Cl)cc4n3)CC2)cc1F [Example 1]  human PDE10A2 (Homo sapiens (Human), UniProt Q9Y233)   No
3  CNC(=O)c1ccc(-c2nccnc2C2CN(c3ncc4ccccc4n3)C2)cc1F [Example 6]  human PDE10A2 (Homo sapiens (Human), UniProt Q9Y233)  Yes
4  CNC(=O)c1ccc(-c2nccnc2C2CCN(c3ccc4ccc(F)cc4n3)CC2)cc1F [Example 2]  human PDE10A2 (Homo sapiens (Human), UniProt Q9Y233)  Yes

---

system: rat MDR1 (mdr1a, P-gp); experiment: Transcellular transport in rat mdr1a-transfected LLC-PK1 cells; type: in vitro ADME; conditions: pH 7.4, mdr1a-LLC-PK1, 5 μM test compound
Readout: efflux ratio at 2 h, 5 μM

>>> print(df.to_string())
                                    compound             test_system                    readout  reported_value
 0  CNC(=O)c1ccc(-c2nccnc2C2CCN(c3ccc4ccccc4n3)CC2)cc1F [Example 3]  rat MDR1 (mdr1a, P-gp)  efflux ratio at 2 h, 5 μM             2.1
 1  CNC(=O)c1ccc(-c2nccnc2C2CN(c3ccc4ccccc4n3)C2)cc1F [Example 7]  rat MDR1 (mdr1a, P-gp)  efflux ratio at 2 h, 5 μM             3.1
 2  CNC(=O)c1ccc(-c2nccnc2C2CN(c3ccc4cc(F)ccc4n3)C2)cc1F [Example 13]  rat MDR1 (mdr1a, P-gp)  efflux ratio at 2 h, 5 μM             2.7
 3  CNC(=O)c1ccc(-c2nccnc2C2CN(c3ncc4ccc(Cl)cc4n3)C2)cc1F [Example 10]  rat MDR1 (mdr1a, P-gp)  efflux ratio at 2 h, 5 μM             1.2
 4  CNC(=O)c1ccc(-c2nccnc2C2CCN(c3ccc4ccc(F)cc4n3)CC2)cc1F [Example 2]  rat MDR1 (mdr1a, P-gp)  efflux ratio at 2 h, 5 μM             2.7
 5  CNC(=O)c1ccc(-c2nccnc2C2CCN(c3ccc4ccc(Cl)cc4n3)CC2)cc1F [Example 1]  rat MDR1 (mdr1a, P-gp)  efflux ratio at 2 h, 5 μM             2.3
 6  CNC(=O)c1ccc(-c2nccnc2C2CN(c3ncc4ccccc4n3)C2)cc1F [Example 6]  rat MDR1 (mdr1a, P-gp)  efflux ratio at 2 h, 5 μM             1.2
 7  CNC(=O)c1ccc(-c2nccnc2C2CN(c3ncc4ccc(F)cc4n3)C2)cc1F [Example 9]  rat MDR1 (mdr1a, P-gp)  efflux ratio at 2 h, 5 μM             2.7
 8  CNC(=O)c1ccc(-c2nccnc2C2CCN(c3ccc4cccc(F)c4n3)CC2)cc1F [Example 5]  rat MDR1 (mdr1a, P-gp)  efflux ratio at 2 h, 5 μM             2.3
 9  CNC(=O)c1ccc(-c2nccnc2C2CN(c3ccc4ncc(Cl)cc4n3)C2)cc1F [Example 14]  rat MDR1 (mdr1a, P-gp)  efflux ratio at 2 h, 5 μM             1.1
10  CNC(=O)c1ccc(-c2nccnc2C2CN(c3ncc4cc(F)c(Cl)cc4n3)C2)cc1F [Example 12]  rat MDR1 (mdr1a, P-gp)  efflux ratio at 2 h, 5 μM             2.8
11  CNC(=O)c1ccc(-c2nccnc2C2CN(c3ccc4ccc(F)cc4n3)C2)cc1F [Example 8]  rat MDR1 (mdr1a, P-gp)  efflux ratio at 2 h, 5 μM             2.5
12  CNC(=O)c1ccc(-c2nccnc2C2CN(c3ncc4cc(F)ccc4n3)C2)cc1F [Example 11]  rat MDR1 (mdr1a, P-gp)  efflux ratio at 2 h, 5 μM             1.2
13  CNC(=O)c1ccc(-c2nccnc2C2CCN(c3ccc4cc(F)ccc4n3)CC2)cc1F [Example 4]  rat MDR1 (mdr1a, P-gp)  efflux ratio at 2 h, 5 μM             2.2
